Data origin: patent US10000452B1

System: P. berghei sporozoites expressing luciferase
Assay: in vitro liver stage activity, luciferase sporozoites infecting HEPG2 hepatoma cells
Type: cell-based
Details: Plasmodium berghei, HEPG2 cells
property: pEC50
Please treat pEC50 as minus the base-10 logarithm of the molar concentration.

// known answers, use as guide
molecule	reported.value
COC(=O)c1c[nH]c2cc(CN3CCN(c4ccccc4)CC3)c(OC)cc2c1=O [Compound 8w]	6.95
COC(=O)c1c[nH]c2cc(CN3CCN(c4ccccc4)CC3)ccc2c1=O [Compound 8j]	8.32
COC(=O)c1c[nH]c2cc(CN3CCN(Cc4ccc(OC)cc4)CC3)ccc2c1=O [Compound 8l]	7.08
COC(=O)c1c[nH]c2cc(N3CCN(c4ccccc4)CC3)ccc2c1=O [Compound 8a]	7.13
COC(=O)c1c[nH]c2ccc(OCc3ccccc3)cc2c1=O [Compound 6e]	6.90
COC(=O)c1c[nH]c2cc(CN3CCN(c4ccc(F)cc4)CC3)c(C)cc2c1=O [Compound 8u]	8.58

Request: Tell me measured pEC50 for COC(=O)c1c[nH]c2cc(CN3CCN(Cc4ccc(OC)cc4)CC3)c(OC)cc2c1=O [Compound 8y] please.
Result: 7.28
